Source of measurements: patent US4391828A

Task for the reader: assign each of the following compounds its reported LC50.
tested on: Anopheles quadrimaculatus; test: Growth-inhibition test on mosquito larvae; assay type: in vivo, Anopheles quadrimaculatus (malaria mosquito); conditions: 168 h, late third- and early fourth-stage larvae, 7 days, corrected by Abbott's formula, read-out: LC-50 (concentration that would prevent and/or retard the growth in 50% of the treated larvae)
Give the value, in units of µg/mL, as a plain number.

Asked: Which value of LC50 has been reported for `CC(C)(C)c1cc(CC=Cc2ccccc2)c(O)c(C(C)(C)C)c1` in the records?
Given back: 0.152

Asked: Reported LC50, compound `CCOc1c(CC=Cc2ccccc2)cc(C(C)(C)C)cc1C(C)(C)C` : ____
Given back: 0.189

Asked: Sample `COc1c(CC=Cc2ccccc2)cc(C(C)(C)C)cc1C(C)(C)C` — what was its LC50?
Given back: 0.026

Asked: Report LC50 for COc1ccc(C(C)c2cc(C(C)(C)C)cc(C(C)(C)C)c2OC)cc1 (centres unmarked) please.
Given back: 0.242

Asked: Entry under review: `COc1c(Cc2ccccc2)cc(C(C)(C)C)cc1C(C)(C)C` . Reported LC50?
Given back: 0.065

Asked: Fill blank: measured LC50 of the compound `CCOc1c(Cc2ccc(OC)cc2)cc(C(C)(C)C)cc1C(C)(C)C` is ____.
Given back: 0.074

Asked: Given the compound `COc1ccc(Cc2cc(C(C)(C)C)cc(C(C)(C)C)c2O)cc1` , what is its reported LC50?
Given back: 0.12

Asked: What value of LC50 has been reported for the following compound? `CC(C)(C)c1cc(Cc2ccccc2)c(O)c(C(C)(C)C)c1`
Given back: 0.2
